Measurement Label: melting point (°C)

These solved cases illustrate the format of a correct answer.
Compound: Oc1nnc(Cl)cc1N1CCNCC1
Unit Tag: °C
melting point: 35
//
Compound: CCCNc1nc(C)c(CCCl)c(=O)n1C
Unit Tag: °C
melting point: 150

[1] O=C(O)C1=CS[C@@H]2/C(=C/c3ccc4c(c3)N(Cc3ccccc3)C(=O)c3ccccc3O4)C(=O)N12
[2] Cn1c(C(F)(F)F)cc(=O)n(-c2cc(OC3CC=CNC3=O)c(Cl)cc2F)c1=O (centres undefined)
Given the listed items, does 1 or 2 have the lesser reported melting point? Bench note: the answer is the label of the chosen record.
2

----------
Reported values of melting point for individual entries

Here are 8 compounds together with their reported answers.
Compound: O=C1NCc2nc3ccc(Cl)cc3c(=O)n2-c2ccccc21
melting point: 286 to 288 °C
--
Compound: Cc1ccccc1-c1nc2ccccc2[nH]1
melting point: 215 °C
--
Compound: Cc1ccc(NC(=O)N[C@]2(C3CCCCC3)N=Cc3ccccc3N(C)C2=O)cc1N(C)c1nnn[nH]1
melting point: 223 to 225 °C
--
Compound: COc1cc(C)nc(-c2cnnn2NS(=O)(=O)c2ccccc2Cl)n1
melting point: 139 °C
--
Compound: N#Cc1ccc(NCc2cccc(F)c2)cc1
melting point: 63 to 64 °C
--
Compound: CC[C@H](C)[C@H](NC(=O)OCc1ccccn1)C(=O)NC(Cc1ccccc1)C(O)C(O)C(Cc1ccccc1)NC(=O)[C@@H](NC(=O)OCc1ccccn1)[C@@H](C)CC (some centres undefined)
melting point: 220 to 221 °C
--
Compound: CC(C)(C)OC(=O)N1C(=O)CCC1c1ccc(Br)cc1 (centres undefined)
melting point: 122 to 124 °C
--
Compound: CCCCCCCCCCCCCC(=O)Nc1ccc(Cl)c(NC2=NN(c3c(Cl)cc(Cl)cc3Cl)C(=O)C2SCCc2ccccc2)c1 (centres undefined)
melting point: 161 to 162 °C

Now consider a different compound.
Give reported melting point value for C=C(Cc1c(Cl)cccc1Cl)C(=O)O
132 °C

----------
Listing of entries alongside the reported melting point.

Compound: CC(C)(C)c1cc(-c2nc(CS(C)(=O)=O)no2)cc(C(C)(C)C)c1O
Measurement Label: melting point
Result: 153 to 155 °C
--
Compound: O=C(C=C1CCCN1)c1ccc(Cl)cc1
Measurement Label: melting point
Result: 146 to 147 °C
--
Compound: Cc1nc(N2CCN(Cc3ccc(C(F)(F)F)cc3)C2=O)sc1C(=O)O
Measurement Label: melting point
Result: 195 to 197 °C
--
Compound: O=C1CSC2CN=C(c3ccccc3)c3cc(Cl)ccc3N12 (configuration not stated)
Measurement Label: melting point
Result: 228 to 230 °C
--
Compound: CCCN(CCC)C(N)=C(C#N)C(N)=S
Measurement Label: melting point
Result: 141 to 144 °C
--
Compound: CSCN1C(=O)c2cccnc2N(CSC)c2cc(Cl)ccc21
Measurement Label: melting point
Result: 181 to 182 °C
--
Compound: CCOC(=O)c1cnn(C)c1C(=O)Nc1ccc2nc(-c3ccccc3)nn2c1
Measurement Label: melting point
Result: 251 to 254 °C
--
Compound: COC(=O)c1cc(C)sc1Nc1ccc(F)cc1[N+](=O)[O-]
Measurement Label: melting point
Result: 149 to 151 °C
--
Compound: CCOC(NC(=O)c1snc(Cl)c1Cl)C(F)(F)F (configuration not stated)
Measurement Label: melting point
Result: 99 to 101 °C
--
Compound: COC(=O)Cn1cc2c(c1C)-c1ccc(Cl)cc1C(c1ccccc1Cl)=NC2
Measurement Label: melting point
Result: 174 to 176 °C

Give the value of melting point reported for the following: COc1cc(C(OC(C)=O)C(=O)O)cc(OC)c1OC (configuration not stated)
135 to 139 °C

Return the recorded melting point value; entry: CSc1cc2ncnc(Nc3cccc(C)c3)c2cc1[N+](=O)[O-]
230 to 231 °C

Report measured melting point; entry is CS(=O)(=O)c1ccc(-n2nc(C(F)(F)F)cc2-c2ccc(-c3cncs3)cc2)cc1
169 to 170 °C

Give a short answer stating reported melting point for CCOC(=O)c1cc(C=O)c2ccccn2c1=O .
179 to 181 °C

Return melting point for the following compound: CCOC(=O)C(C)=NNc1ccc2[nH]c(=O)[nH]c2c1
220 °C

Name the recorded melting point of the compound listed here: Cc1c(N2CCNCC2)nn2c(-c3ccncc3)c(-c3ccc(F)cc3)nc2c1C
233 to 235 °C

Quick one: give measured melting point for Cc1ccc2c(c1)c(=O)oc(=O)n2Cc1ccccc1
150 °C

Consider the compound CS(=O)(=O)Nc1nc(CN2CCC(c3c[nH]c4ccccc34)CC2)cs1 . State its measured melting point.
215 to 217 °C

Quickly give me recorded melting point for Cc1ccc2c(c1)c1c(n2C(=O)c2ccccc2)CCCC1C(=O)OCc1ccccc1 (configuration not stated)
119 to 121 °C

Read the entry COc1c(C)c(OC(=O)c2c(C)c(C)c(OCCCOc3ccc(C(=O)O)cc3)c(C)c2OC)c(C)c(C)c1C(N)=O and write its reported melting point.
267 to 268 °C

----------
Quick reference for melting point among some compounds

Some entries whose results are on file:
Compound: CCCCCNC(=O)c1cnc(N2CCN(C(=O)c3ccccc3C(F)(F)F)CC2)s1
Result: 92 to 94 °C
//
Compound: Clc1ccc(C2C3=C(CCS3)NC3=C2SCC3)cc1Cl
Result: > 260 °C
//
Compound: CNC(=O)CCCCc1csc(NC(N)=NCC(F)(F)F)n1
Result: 122 to 126 °C
//
Compound: O=C1NC(N2CCN(c3ccncc3)CC2)c2ccccc21 (stereo not given)
Result: 210 to 214 °C

Please report melting point for the following compound: COc1ccc(S(=O)(=O)N(Cc2cccnc2)c2c(C(=O)O)cnc3c2c(C)nn3-c2ccccc2)cc1
192 to 194 °C

Specify melting point for COc1cc(C2CCN(CC(N)=O)CC2)ccc1Nc1ncc2ccc(-c3ccccc3OC)n2n1 and stop.
88 to 95 °C

Give reported melting point value for CCOC(=O)Cc1cc(O)c(C)cc1O
134 °C

Respond only with melting point recorded for CN(C)c1ccc2nc(N)c(C#N)c(NCc3ccco3)c2c1
235 °C

Please supply the value of reported melting point for the item Cc1cc2c(-c3cccc(/C=C/C=O)c3)c(CC(=O)Nc3ccc(F)cc3C(F)(F)F)c(=O)oc2cc1Cl
232 to 235 °C

Look up and state reported melting point for O=C(O)C(O)(CSc1ccccc1)C(F)(F)F (stereo not given)
83 to 84 °C

----------
Measured melting point by item

In one line, give reported melting point of the entry CS(=O)(=O)CCCCC(C1CCCCC1)S(=O)(=O)c1ccc(Cl)cc1 (stereo not given) .
104 to 106 °C

Note melting point for the molecule shown: CC(=O)c1ccc(C2COc3c(C)c(C)c(NC(=O)CC(C)(C)C)c(C)c32)cc1 (stereo not given)
181 to 182 °C

Determine from records and report melting point for C[C@]1(CN2CCN(C(=O)OCC=Cc3ccc(C(F)(F)F)cc3)CC2)Cn2cc([N+](=O)[O-])nc2O1
132 to 133 °C

Note down melting point recorded for CN1C(=O)C(C(=O)Nc2ccc(Oc3nnc(C(C)(C)C)o3)cc2)C(=O)N(C)C1=O
200 to 203 °C

Check the records and state melting point for COC(=O)C#CC1CCC2C3CCC4CC(O)CCC4(C)C3CCC12C (stereo not given)
135 to 137 °C

----------
Reported melting point by item:

Worked examples follow.
Compound: COc1ccc(-c2[nH]cnc2-c2cc(OC)c(O)c(OC)c2)cc1F
Measurement Label: melting point
Result: 125 to 127 °C

Compound: O=C(O)c1cccc2c1CCc1ccsc1-2
Measurement Label: melting point
Result: 182 to 184 °C

Compound: COc1cc(CCI)cc2c1OCO2
Measurement Label: melting point
Result: 78 to 80 °C

Give recorded melting point. COC(=O)NCc1nc(-c2ccc3c(c2)Nc2ccccc2S3)cs1
151 to 153 °C

Write down melting point measured for item COc1ccc(/C=C/C(=O)C2C(=O)CC(c3ccc(OC)cc3)C([N+](=O)[O-])C2c2ccco2)cc1 (stereo not given)
192 °C

// fetch melting point given entry COc1ccc([C@@]2(C)CNC(=O)O2)cc1OC1CCCC1
80 °C

Determine its reported melting point: C[C@H](CNc1nc(Cl)nc2c1ncn2[C@@H]1O[C@H](CO)[C@@H](O)[C@H]1O)Oc1ccccc1
175 to 177 °C

Entry CN(C)c1ccc(C(=O)C(C)(C)N2CCOCC2)cc1 needs its melting point filled in; supply it.
152 to 155 °C

For the compound Nc1ncnc2c1c(-c1ccc(Oc3ccccc3)cc1)c(Br)n2C1CCCC1 , report melting point.
162 °C

Specify melting point for CCCCOC(=O)c1cc(=O)c2c(cc(OC)c3ncccc32)[nH]1 and stop.
212 to 213 °C
